assay.method.text: Terminal plasma concentration in CD1 mouse at 100 mg/kg, ip after 180 mins
Assay type: ADME, organism-based
condition.description: read-out: Cp(T)
measure.name: concentration at 3 h (ng/mL)
The reply should be a number in ng/mL, with the unit left off.

(Q) Please supply the value of reported concentration at 3 h for the item "N#CCCC(=O)NC1=NN(c2ccc(Cl)c(Cl)c2)CC1"
(A) 17600

----------
Consider the following compounds and their measured EC50 for c-Abl activation readings.
assayed.system: Tyrosine-protein kinase ABL1 (Homo sapiens, UniProt P00519)
Sequence (P00519 whole entry): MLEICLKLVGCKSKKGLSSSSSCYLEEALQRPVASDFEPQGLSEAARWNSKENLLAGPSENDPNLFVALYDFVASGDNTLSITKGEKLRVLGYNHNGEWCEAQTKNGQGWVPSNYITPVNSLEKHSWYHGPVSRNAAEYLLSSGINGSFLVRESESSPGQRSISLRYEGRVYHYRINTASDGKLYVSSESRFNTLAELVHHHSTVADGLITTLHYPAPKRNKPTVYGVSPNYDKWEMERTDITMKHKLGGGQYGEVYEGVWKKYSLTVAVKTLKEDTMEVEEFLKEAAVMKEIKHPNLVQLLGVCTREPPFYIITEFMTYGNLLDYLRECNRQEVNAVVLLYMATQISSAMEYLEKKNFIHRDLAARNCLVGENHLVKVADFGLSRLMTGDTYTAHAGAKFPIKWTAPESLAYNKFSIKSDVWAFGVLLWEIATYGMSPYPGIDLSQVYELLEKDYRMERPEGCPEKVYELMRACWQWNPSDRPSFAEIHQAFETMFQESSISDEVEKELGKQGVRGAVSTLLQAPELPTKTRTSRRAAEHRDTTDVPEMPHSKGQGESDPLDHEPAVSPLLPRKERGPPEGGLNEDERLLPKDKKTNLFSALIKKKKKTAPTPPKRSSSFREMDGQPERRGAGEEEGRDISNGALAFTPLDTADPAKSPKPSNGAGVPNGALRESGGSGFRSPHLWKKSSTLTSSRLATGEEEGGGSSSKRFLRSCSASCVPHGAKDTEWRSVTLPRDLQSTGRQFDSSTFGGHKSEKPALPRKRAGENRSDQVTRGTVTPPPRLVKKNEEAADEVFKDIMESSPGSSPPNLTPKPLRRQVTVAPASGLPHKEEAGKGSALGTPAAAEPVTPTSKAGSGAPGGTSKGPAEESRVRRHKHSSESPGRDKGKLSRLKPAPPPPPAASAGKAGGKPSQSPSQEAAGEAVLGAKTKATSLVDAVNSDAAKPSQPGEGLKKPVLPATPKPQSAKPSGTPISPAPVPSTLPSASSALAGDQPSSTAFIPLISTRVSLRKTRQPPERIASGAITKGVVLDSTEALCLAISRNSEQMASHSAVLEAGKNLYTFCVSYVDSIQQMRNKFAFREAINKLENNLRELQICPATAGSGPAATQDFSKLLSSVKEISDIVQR
assay.method.text: Activation of full length human 6His-tagged c-Abl expressed in baculovirus expression system using abltide as substrate after 2 hrs by IMAP assay
condition.description: read-out: pIC50 (converted)
The reply should be a number in nM, with the unit left off.

Look over these answered cases.
compound=O=C(NC1=NN(c2ccc(Cl)c(Cl)c2)CC1)c1cccnc1 unit_label=nM observed_measurement=158
compound=CC(=O)Nc1nc(-c2ccc(Cl)c(C)c2)cs1 unit_label=nM observed_measurement=31600
compound=CC(=O)N[C@@H](C)C(=O)NC1=NN(c2ccc(Cl)c(Cl)c2)CC1 unit_label=nM observed_measurement=1580
compound=N#CCC(=O)Nc1csc(-c2ccc(Cl)c(Cl)c2)n1 unit_label=nM observed_measurement=1580
compound="O=C1CCCC(C(=O)NC2=NN(c3ccc(Cl)c(Cl)c3)CC2)N1 (centres undefined)" unit_label=nM observed_measurement=398

(Q) Please supply the value of reported EC50 for c-Abl activation for the item "O=C(NC1=NN(c2ccc(Cl)c(Cl)c2)CC1)c1ccncc1F"
(A) 126

(Q) Please supply the value of reported EC50 for c-Abl activation for the item "O=C(Nc1nc(-c2ccc(Cl)c(Cl)c2)cs1)C1CC1"
(A) 158

----------
assayed.system: Tyrosine-protein kinase ABL1 (Homo sapiens, UniProt P00519, D382N)
Sequence (P00519 as listed by the source D382N): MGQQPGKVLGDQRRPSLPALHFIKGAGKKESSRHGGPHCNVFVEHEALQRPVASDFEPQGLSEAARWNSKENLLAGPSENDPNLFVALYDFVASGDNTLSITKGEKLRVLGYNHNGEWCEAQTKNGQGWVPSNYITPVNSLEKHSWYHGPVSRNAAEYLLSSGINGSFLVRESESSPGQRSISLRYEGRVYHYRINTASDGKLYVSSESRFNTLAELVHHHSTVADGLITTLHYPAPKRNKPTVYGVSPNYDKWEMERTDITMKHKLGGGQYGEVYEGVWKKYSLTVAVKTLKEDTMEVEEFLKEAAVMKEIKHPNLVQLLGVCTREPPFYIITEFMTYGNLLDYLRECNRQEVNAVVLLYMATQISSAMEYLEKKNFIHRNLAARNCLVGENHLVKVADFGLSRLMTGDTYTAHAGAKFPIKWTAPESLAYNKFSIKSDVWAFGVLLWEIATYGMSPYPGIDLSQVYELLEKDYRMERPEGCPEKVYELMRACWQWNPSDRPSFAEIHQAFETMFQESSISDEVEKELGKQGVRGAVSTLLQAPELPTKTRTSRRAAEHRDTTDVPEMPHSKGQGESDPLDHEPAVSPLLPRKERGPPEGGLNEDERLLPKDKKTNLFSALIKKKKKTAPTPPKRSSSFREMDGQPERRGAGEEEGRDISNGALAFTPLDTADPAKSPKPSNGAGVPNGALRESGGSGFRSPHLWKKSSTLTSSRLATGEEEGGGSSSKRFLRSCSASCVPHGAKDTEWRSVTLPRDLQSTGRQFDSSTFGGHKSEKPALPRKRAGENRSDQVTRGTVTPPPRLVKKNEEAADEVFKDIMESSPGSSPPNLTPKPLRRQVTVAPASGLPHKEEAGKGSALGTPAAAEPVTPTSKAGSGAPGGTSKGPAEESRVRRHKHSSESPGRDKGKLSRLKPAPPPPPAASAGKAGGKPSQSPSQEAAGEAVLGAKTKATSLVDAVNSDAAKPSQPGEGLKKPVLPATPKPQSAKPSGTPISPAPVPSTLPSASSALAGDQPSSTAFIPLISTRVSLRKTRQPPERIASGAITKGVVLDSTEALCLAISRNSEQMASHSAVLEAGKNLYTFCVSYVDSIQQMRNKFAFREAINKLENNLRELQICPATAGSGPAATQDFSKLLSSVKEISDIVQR
assay.method.text: Displacement of Myr-GQQPGKVLGDQRRPSL(K-TAMRA)G-amide from N-terminal-truncated human c-ABL D382N mutant (46 to 534 residues) after 30 mins by fluorescence polarization binding assay
pIC50: −log10 of the molar value.
We use 6 as the dividing line for pIC50: on or above the line is Condition met, below is Condition not met.

Example entries and their recorded answers appear below.
structure_string=O=C(NC1=NN(c2ccc(Cl)c(Cl)c2)CC1)c1ccncc1F classification="Condition met"
structure_string=O=C(NC1=NN(c2ccc(Cl)c(Cl)c2)CC1)c1ccnnc1 classification="Condition met"
structure_string=CC(=O)Nc1nc(-c2cccc(O)c2)cs1 classification="Condition not met"

// switching to the query compound
(Q) Hi team, for "CC(=O)NC1=NN(c2ccc(Cl)c(Cl)c2)[C@@H](C)C1" , is the recorded pIC50 at or above 6?
(A) Condition met

----------
assayed.system: UniProt:P00519
assay.method.text: Induction of human c-ABL phosphorylation at Y245/Y412 residues in bacmam-induced HEK-MSR2 cell lysates by in-cell Western blot analysis
Type: subcellular, Lysate
Consider the following compounds and their measured pEC50 readings.
API: returns pEC50 as number; meaning -log10 of concentration in mol/L.

compound=O=C(NC1=NN(c2ccc(Cl)c(Cl)c2)CC1)c1c(F)cccc1F assayed_system=UniProt:P00519 observed_measurement=5.50
compound=O=C(NC1=NN(c2ccc(Cl)c(Cl)c2)CC1)c1ccncn1 assayed_system=UniProt:P00519 observed_measurement=4.40
compound=O=C(NC1=NN(c2ccc(Cl)c(Cl)c2)CC1)c1cccnc1F assayed_system=UniProt:P00519 observed_measurement=5.90
compound=CC(=O)NC1=NN(c2ccc(Cl)c(Cl)c2)[C@@H](C)C1 assayed_system=UniProt:P00519 observed_measurement=5.00

(Q) Please supply the value of reported pEC50 for the item "Cn1ncc([N+](=O)[O-])c1C(=O)Nc1nc(-c2ccc(Cl)c(Cl)c2)cs1"
(A) 4.80

These entries and their values trace back to ChEMBL document CHEMBL4411335.
